measurement.type: melting point

Entry "CCOc1cc(OCCCc2cn(-c3cc(C(F)(F)F)ccn3)nc2OCC)ccc1CCC(=O)O" : reported melting point = ?
119 to 120 °C

Query (molecule): "NC(=O)c1ccn2c1CSC2" ; field requested: melting point
186 °C

Request the reported melting point associated with "COc1ccc2c(c1)S(=O)(=O)c1ccccc1C(=S)N2"
250 to 252 °C

---

measurement.type: melting point

Past entries and their recorded results:
INSERT INTO measurements (molecule, reported_measurement) VALUES
  ('CNc1nc(N)ncc1-c1cccc(Cl)c1Cl', '233 to 237 °C'),
  ('COC(=O)Nc1ccc(OC(=O)OC)cc1', '75 to 76 °C');

For the molecule shown here, "Nc1ccccc1NC(=O)c1cc2cccc(OCc3ccccn3)c2o1" , give the reported melting point.
105 to 135 °C

Requested read-out: melting point. Entry: "CCOc1ccc2c(c1)C(=O)N(c1ccc3c(ccn3C)c1)C2"
185 to 190 °C

Query (molecule): "CCCC(=O)c1cnc2c(OC)cccc2c1Nc1ccccc1C" ; field requested: melting point
215 to 217 °C

I would be grateful if you could share the reported melting point for "Nc1ncnc2c1c(-c1ccccc1Cl)cn2-c1ccccc1" .
175 to 176 °C

Fill in the blank: the reported melting point of "Nc1cccc(O)c1Cl" is ____.
153 °C

Look up melting point: "COC(=O)c1[nH]c(=S)n(Nc2cccc(Cl)c2)c1C"
160 to 162 °C

Request the reported melting point associated with CC(=O)Nc1ccc(C(=O)OC2C=C(C)C(=O)CC(C)(C)C2O)cc1 (configuration not stated)
134 to 135 °C

What melting point value was documented for this molecule, "COC(=O)COc1ncccc1[N+](=O)[O-]" ?
61.5 °C

// returns reported melting point for input CCOC(=O)C(C)c1ccc2nc(-c3ccccc3)oc2c1 (configuration not stated)
46 °C

Look up melting point: "NC(=O)c1cccc(-n2c(=O)n(Cc3cccnc3)c(=O)c3cccnc32)c1"
219 to 220 °C

Field request: melting point | item: "COc1ccc(N2CCN(C)CC2)cc1-c1cnn2c(N)c(-c3cccc(Cl)c3)c(C)nc12"
116 to 121 °C

Given the molecule "CCNC(=O)Nc1cc(C(C)(C)C)c2c(c1)C(C)(C)CO2" , what is its reported melting point?
197 to 198 °C

I have this molecule here, COc1ccccc1OC1CCN(C(=O)Cl)C1 (configuration not stated) , and I need its recorded melting point.
80 to 81 °C

---

The entries below are paired with their reported melting point.

INSERT INTO measurements (compound, reported_measurement) VALUES
  ('CCCNC(=O)Nc1cc(-c2c(-c3ccc(F)cc3)nc3cccnn23)ccn1', '219 to 220 °C');

Fill in: melting point of "COc1ccc(C(=CN(C)C)C(C)=O)cc1" is ___
51 °C

Would you mind telling me what melting point value was observed for CCOC(=O)NC1N=C(c2ccc(Cl)cc2)c2oc3ccccc3c2NC1=O (stereo not given) ?
> 260 °C

So what does the record say about melting point for "COCc1nc(-c2cc(C(C)(C)C)c(O)c(C(C)(C)C)c2)cs1" ?
116 to 117 °C

Need melting point, item "O=C1c2ccccc2C(=O)N1CCCCN1CCN(c2csc3cc(F)ccc23)CC1"
94 to 95 °C

---

The reader will find reported melting point values listed item by item below.

Which value of melting point has been reported for "COC(=O)c1c(N)cc(OC)c(OC)c1OC" in the records?
94 to 96 °C

---

measurement.type: melting point

Previously resolved entries follow.
INSERT INTO results (compound, reported_measurement) VALUES
  ('O=c1c(NCCCN(Cc2cccs2)c2ccccn2)c(NCc2ccncc2)c1=O', '189 to 192 °C'),
  ('O=C1NCCN1c1ccc(S(=O)(=O)Nc2ccc3c(c2)OCO3)cc1', '219 to 220 °C');

Continue with the compound presented below.
Which melting point is reported for this compound? CN1CC(CCN2CCN(c3ccccc3F)CC2)OC1=O (stereo not given)
80 to 82 °C

---

measurement.type: melting point

Known results for compounds:
INSERT INTO results (compound, reported_measurement) VALUES
  ('N#Cc1ccc(-c2cn(-c3ccc(C#N)cc3)c(Cc3ccccc3)n2)cc1', '168 to 188 °C'),
  ('N#Cc1cc(Cl)cc(Oc2ccc(CC(=O)Nc3ccc(S(N)(=O)=O)cc3Br)cc2Br)c1', '168 to 170 °C'),
  ('O=S(c1cc(Br)c(-c2ccc(Cl)cc2)[nH]1)C(F)(F)F (centres undefined)', '177 to 179 °C'),
  ('CC(C)C(=CCS(=O)(=O)c1ccccc1)C(C)C', '50 °C');

Now look at this entry.
For the compound shown here, "CCCn1nc(C(F)(F)CC)nc1Cc1ccc(-c2ccccc2-c2nnn[nH]2)nc1" , give the reported melting point.
142 to 144 °C

---

measurement.type: melting point

Answered cases to consult:
INSERT INTO results (compound, measurement_type, reported_measurement) VALUES
  ('CC(=O)n1ncc2cc(C)c([N+](=O)[O-])cc21', 'melting point', '180 to 182 °C'),
  ('COC(=O)c1cn2c3c(c(F)c(F)cc3c1=O)CC(C)N2C (stereo unspecified)', 'melting point', '184 to 185 °C'),
  ('Cn1cc2c3c(ccc2n1)CCC3=O', 'melting point', '162 to 164 °C'),
  ('Cc1c(-c2ccccc2)sc2nc(NC3CCCCC3)[nH]c(=O)c12', 'melting point', '265 to 270 °C');

Value lookup for melting point; key = "COC(=O)C(=Cc1c[nH]c2cc(C)ccc12)[N+](=O)[O-]"
167 to 169 °C

---

measurement.type: melting point

The cases that follow already have their melting point on record.
INSERT INTO results (compound, measurement_type, reported_measurement) VALUES
  ('CS(=O)(=O)ON=C(C#N)C=Cc1ccccc1', 'melting point', '127 to 129 °C'),
  ('COCOc1cc(CCCOc2nn(Cc3ccccc3)cc2CC(=O)O)n(Cc2ccc(Cl)cc2Cl)n1', 'melting point', '89.5 to 91.5 °C'),
  ('CC1(C2CCCC2)Cc2cc(OCCCC#N)c(Cl)c(Cl)c2C1=O (centres undefined)', 'melting point', '112 °C'),
  ('COc1cc(C(=O)O)ccc1Cc1c(Cl)n(C)c2ccc(CCNC(=O)N(C)C)cc12', 'melting point', '215 °C'),
  ('COc1c(C)c2c(c(C)c1NC(=O)CC(C)(C)C)C(c1ccc(C(C)C)cc1)CO2 (centres undefined)', 'melting point', '162 to 163 °C'),
  ('O=C(Nc1ccc(Cl)cc1)NC1CCN(C(=O)Cc2c[nH]cn2)CC1', 'melting point', '174 to 176 °C'),
  ('Cc1c(Cc2ccccc2)c(=O)n(Cc2ccccc2)c2cc(OCC(N)=O)cc(OCC(N)=O)c12', 'melting point', '252 to 253 °C'),
  ('CC(C(=O)OCc1ccc([N+](=O)[O-])cc1)N(C(=O)OC(C)(C)C)C1CC1 (centres undefined)', 'melting point', '117 to 118 °C');

Attention now shifts to the item below.
I am curious: what melting point value has been reported for "O=C(c1sc2c(ccc(=O)n2-c2ccccc2)c1Br)N1CC(O)C1" ?
199 °C

---

measurement.type: melting point (°C)

INSERT INTO assay_data (compound, measurement_unit, reported_measurement) VALUES
  ('COc1ccc(S(C)(=O)=O)cc1C(=O)NCC1CCCN1C12CCC(CC1)C2 (stereo not given)', '°C', 125),
  ('Nc1ccc(-c2ccc(C(F)(F)F)cc2)cn1', '°C', 130);

1. c1ccc(-c2ncc(-c3cnc(-c4ccccn4)[nH]3)cn2)cc1
2. Cc1cccc(NC(=O)NCC(=O)N(Cc2ccccc2)c2ccccc2)c1
Could you kindly indicate whether 1 or 2 has the higher melting point value? Give the label of your selection.
1

---

measurement.type: melting point

INSERT INTO measurements (molecule, reported_measurement) VALUES
  ('O=C(NNS(=O)(=O)c1ccccc1)c1ccccc1Oc1ccccc1', '149 to 150 °C'),
  ('CCOC(=O)Cc1ccc2c(c1)C(O)C(NC(=O)OC)CC2 (centres undefined)', '99 to 100 °C'),
  ('O=C1c2ccccc2-c2c1c1ccccc1c(=O)n2CCCl', '210 to 212 °C'),
  ('COc1cc([N+](=O)[O-])ccc1S(=O)(=O)N1C(=O)C(NC(C)=O)(c2ccccc2Cl)c2cc(Cl)ccc21 (centres undefined)', '205 to 210 °C'),
  ('CCN(CC)CCNC(=O)N1CCCC(S(=O)(=O)c2ccc(OCCOC)cc2)C1 (centres undefined)', '98 to 99 °C');

Switching to the query record.
melting point for O=C(N[C@H]1CCN(CCCOc2ccc(F)cc2)C[C@H]1O)c1ccccc1 (relative stereo) ?
130 °C
